Taken from ChEMBL document CHEMBL2150921.

Give selectivity ratio for every item shown.
Assay: Therapeutic index, ratio of CC50 for human C8166 cells to EC50 for HIV1 A17 harbouring RT K103N/Y181C mutant infected in human C8166 cells
Type: cell-based
Settings: read-out: Ratio CC50/EC50

Ask: Please report the recorded selectivity ratio for "Cc1cc(S(N)(=O)=O)ccc1NC(=O)COc1ccc(Cl)cc1NC(=O)c1ccccc1C" .
Result: 29.4

Ask: Now this one: "COc1ccc(C(=O)Nc2cc(Cl)ccc2OCC(=O)Nc2ccc(S(N)(=O)=O)cc2C)cc1"
Result: 3.85

Ask: Field entry: "Cc1cc(S(N)(=O)=O)ccc1NC(=O)COc1ccc(Cl)cc1NC(=O)c1cccc(Cl)c1"
Result: 39.9

Ask: Here is the next compound: "Cc1cc(S(N)(=O)=O)ccc1NC(=O)COc1ccc(Cl)cc1NC(=O)c1ccc2ccccc2c1"
Result: 4.22

Ask: Thanks! And "Cc1cc(S(N)(=O)=O)ccc1NC(=O)COc1ccc(Cl)cc1NC(=O)c1ccc(Cl)cc1Cl" ?
Result: 187

Ask: Same for "Cc1cc(S(N)(=O)=O)ccc1NC(=O)COc1ccc(Cl)cc1NC(=O)Cc1c(Cl)cccc1Cl"
Result: > 1.49

Ask: Next: "Cc1cccc(C(=O)Nc2cc(Cl)ccc2OCC(=O)Nc2ccc(S(N)(=O)=O)cc2C)c1"
Result: 115

Ask: Let us now turn to "Cc1cc(S(N)(=O)=O)ccc1NC(=O)COc1ccc(Cl)cc1NC(=O)c1cc(Cl)cc(Cl)c1"
Result: 268

Ask: What do we get for "Cc1cc(S(N)(=O)=O)ccc1NC(=O)COc1ccc(Cl)cc1NC(=O)c1ccccc1[N+](=O)[O-]" ?
Result: 188
